Recorded measurements of Ca2+ current shown as a percentage (normalized to current before peptide), one per entry
- measuredOn: N-type calcium channels (Mus musculus, UniProt O55017)
- Sequence (O55017 whole entry): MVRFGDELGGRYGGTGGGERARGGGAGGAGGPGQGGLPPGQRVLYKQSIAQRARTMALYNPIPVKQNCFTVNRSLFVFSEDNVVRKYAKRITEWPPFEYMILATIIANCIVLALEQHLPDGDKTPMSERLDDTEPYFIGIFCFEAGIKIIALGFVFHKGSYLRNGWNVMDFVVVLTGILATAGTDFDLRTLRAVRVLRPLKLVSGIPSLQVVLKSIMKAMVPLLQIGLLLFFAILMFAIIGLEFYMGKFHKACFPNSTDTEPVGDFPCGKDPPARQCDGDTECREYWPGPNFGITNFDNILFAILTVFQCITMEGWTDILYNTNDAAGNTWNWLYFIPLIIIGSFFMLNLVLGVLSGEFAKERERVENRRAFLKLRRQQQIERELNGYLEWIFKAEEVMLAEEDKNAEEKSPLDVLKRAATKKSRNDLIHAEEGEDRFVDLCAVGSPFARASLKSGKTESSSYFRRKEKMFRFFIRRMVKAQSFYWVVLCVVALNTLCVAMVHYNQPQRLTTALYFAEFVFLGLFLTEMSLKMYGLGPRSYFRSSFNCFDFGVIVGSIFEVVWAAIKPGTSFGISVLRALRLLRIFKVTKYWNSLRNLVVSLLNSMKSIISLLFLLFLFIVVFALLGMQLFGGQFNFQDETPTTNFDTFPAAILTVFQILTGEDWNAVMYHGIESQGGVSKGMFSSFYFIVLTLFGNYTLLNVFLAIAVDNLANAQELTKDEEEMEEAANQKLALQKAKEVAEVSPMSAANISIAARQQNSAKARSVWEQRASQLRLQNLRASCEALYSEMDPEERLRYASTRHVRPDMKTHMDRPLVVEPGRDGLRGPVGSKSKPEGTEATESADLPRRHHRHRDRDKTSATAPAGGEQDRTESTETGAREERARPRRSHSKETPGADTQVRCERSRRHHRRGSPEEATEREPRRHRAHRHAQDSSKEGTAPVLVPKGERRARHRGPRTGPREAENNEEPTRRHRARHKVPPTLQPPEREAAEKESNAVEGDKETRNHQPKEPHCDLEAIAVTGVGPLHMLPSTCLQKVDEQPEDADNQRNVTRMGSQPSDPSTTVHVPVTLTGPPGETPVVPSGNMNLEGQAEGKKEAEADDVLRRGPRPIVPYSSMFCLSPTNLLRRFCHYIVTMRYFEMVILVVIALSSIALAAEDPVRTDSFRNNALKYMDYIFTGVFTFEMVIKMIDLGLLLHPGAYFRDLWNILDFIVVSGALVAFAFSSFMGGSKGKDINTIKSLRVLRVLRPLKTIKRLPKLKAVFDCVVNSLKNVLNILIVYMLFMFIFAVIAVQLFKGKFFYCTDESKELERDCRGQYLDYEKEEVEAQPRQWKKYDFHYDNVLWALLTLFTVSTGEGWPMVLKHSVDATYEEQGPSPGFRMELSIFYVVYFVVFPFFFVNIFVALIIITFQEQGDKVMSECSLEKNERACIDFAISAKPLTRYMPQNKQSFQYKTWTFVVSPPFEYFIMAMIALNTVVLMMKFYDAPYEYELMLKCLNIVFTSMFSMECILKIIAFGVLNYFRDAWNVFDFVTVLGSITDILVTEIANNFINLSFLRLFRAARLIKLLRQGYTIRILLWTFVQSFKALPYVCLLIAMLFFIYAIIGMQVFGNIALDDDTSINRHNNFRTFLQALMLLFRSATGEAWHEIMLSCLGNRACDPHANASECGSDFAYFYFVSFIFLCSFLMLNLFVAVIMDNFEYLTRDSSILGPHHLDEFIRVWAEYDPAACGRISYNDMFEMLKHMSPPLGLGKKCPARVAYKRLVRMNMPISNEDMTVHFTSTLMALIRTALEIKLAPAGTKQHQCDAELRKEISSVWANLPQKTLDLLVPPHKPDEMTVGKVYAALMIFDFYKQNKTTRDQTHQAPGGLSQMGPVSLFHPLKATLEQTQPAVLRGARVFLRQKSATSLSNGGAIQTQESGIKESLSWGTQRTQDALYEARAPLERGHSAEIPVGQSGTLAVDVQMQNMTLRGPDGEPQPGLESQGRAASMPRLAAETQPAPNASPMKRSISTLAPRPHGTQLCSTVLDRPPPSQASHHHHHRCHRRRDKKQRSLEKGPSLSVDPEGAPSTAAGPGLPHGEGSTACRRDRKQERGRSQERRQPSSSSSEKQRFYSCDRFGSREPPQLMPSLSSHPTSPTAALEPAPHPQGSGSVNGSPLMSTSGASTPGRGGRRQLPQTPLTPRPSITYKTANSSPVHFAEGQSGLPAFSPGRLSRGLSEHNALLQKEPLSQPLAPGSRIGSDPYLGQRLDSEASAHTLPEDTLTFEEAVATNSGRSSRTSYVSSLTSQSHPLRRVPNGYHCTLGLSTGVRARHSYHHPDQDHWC
- Sequence (O08532 25-956 partner limits assumed): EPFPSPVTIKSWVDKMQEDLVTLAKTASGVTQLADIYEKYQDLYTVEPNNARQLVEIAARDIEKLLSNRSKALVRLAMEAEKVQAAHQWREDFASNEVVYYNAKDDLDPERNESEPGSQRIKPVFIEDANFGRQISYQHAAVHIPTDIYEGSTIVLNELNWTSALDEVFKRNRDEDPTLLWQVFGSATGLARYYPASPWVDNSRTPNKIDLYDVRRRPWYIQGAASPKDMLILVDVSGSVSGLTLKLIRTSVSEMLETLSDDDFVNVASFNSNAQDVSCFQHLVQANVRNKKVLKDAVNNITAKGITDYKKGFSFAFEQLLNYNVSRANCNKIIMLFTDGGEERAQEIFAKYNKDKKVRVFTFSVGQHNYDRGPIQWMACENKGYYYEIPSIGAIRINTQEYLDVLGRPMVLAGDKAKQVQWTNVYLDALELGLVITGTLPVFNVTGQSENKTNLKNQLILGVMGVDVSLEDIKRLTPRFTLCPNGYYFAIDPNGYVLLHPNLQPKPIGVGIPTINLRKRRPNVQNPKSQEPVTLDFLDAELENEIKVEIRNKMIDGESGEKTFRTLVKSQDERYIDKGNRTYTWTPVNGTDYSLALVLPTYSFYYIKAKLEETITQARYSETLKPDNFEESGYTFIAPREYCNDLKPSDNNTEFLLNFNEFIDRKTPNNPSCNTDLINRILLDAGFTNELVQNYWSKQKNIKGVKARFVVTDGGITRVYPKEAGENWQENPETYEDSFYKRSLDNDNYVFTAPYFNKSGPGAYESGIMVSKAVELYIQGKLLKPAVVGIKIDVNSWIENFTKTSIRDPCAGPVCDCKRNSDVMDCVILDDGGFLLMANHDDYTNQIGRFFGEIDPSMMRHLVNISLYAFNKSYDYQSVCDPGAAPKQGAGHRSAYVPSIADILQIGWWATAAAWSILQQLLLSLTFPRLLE
- Sequence (O08532 957-1103 partner limits assumed): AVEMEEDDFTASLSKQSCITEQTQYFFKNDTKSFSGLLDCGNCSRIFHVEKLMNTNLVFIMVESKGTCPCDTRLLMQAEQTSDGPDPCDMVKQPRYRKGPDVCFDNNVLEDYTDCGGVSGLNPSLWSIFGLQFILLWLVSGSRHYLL
- Sequence (P54285 whole entry partner): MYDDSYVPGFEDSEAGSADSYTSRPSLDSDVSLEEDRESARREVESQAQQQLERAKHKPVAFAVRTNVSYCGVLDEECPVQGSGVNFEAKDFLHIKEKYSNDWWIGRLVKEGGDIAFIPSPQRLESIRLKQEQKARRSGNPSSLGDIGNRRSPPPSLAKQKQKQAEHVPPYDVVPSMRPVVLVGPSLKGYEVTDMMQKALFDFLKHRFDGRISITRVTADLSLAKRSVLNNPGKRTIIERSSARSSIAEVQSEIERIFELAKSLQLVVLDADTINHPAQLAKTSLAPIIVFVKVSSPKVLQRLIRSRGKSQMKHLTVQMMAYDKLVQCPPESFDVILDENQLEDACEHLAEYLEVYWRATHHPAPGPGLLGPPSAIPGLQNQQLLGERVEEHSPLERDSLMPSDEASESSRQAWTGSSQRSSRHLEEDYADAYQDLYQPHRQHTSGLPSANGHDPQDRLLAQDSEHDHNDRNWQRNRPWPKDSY
- experimentalProtocol: Whole-cell patch clamp recordings of calcium currents in dorsal root ganglion neurons
- Type: cell-based, Swiss mice
- experimentalParameters: peptide at 100 μM; mean+/-s.e.m.; DRG neurons
Where no end group is shown, it is not given here. [ ]: non-standard residue; d: D form. Tle = CC(C)(C)[C@H](N)C(=O)O; Nva = CCC[C@H](N)C(=O)O

Example sequences with recorded Ca2+ current shown as a percentage (normalized to current before peptide):
| seqString | resultValue |
| --- | --- |
| YGRKKRRQRRRALSSIESDV (Synthetic peptide - 1994 Tat-NR2B9c K to A) [Peptide 1994] | 77+/−1.8% |
| YGRKKRRQRRRKLSSIESDX [1976] (YGRKKRRQRRRKLSSIESD[Nva]) [Peptide 1976] | 66+/−3.4% |
| FGRKKRRQRRRALSSIESDV (also: fluorescent label, place not given here (F-Tat-NR2B9c)) [Peptide 1995] | 97+/−0.2% |
| YGRKKRRQRRRKLSSIESDX [1977] (YGRKKRRQRRRKLSSIESD[Tle]) [Peptide 1977] | 65+/−5.1% |
| FGRKKRRQRRRKLSSIESDV (also: fluorescent label, place not given here (F-Tat-NR2B9c)) [Peptide 1993] | 91+/−1.6% |

Considering YGRKKRRQRRRKLSSIEADA (Synthetic peptide - 1992 Tat-NR2B9c-AA) [Peptide 1992] , its Ca2+ current shown as a percentage (normalized to current before peptide) with N-type calcium channels (Mus musculus, UniProt O55017) was recorded as 74+/−2.4%

Test item KLSSIESDV (Synthetic active peptide - 1991 2B9c) [Peptide 1991] ; N-type calcium channels (Mus musculus, UniProt O55017); reported Ca2+ current shown as a percentage (normalized to current before peptide) was 94+/−1.7%

The sequence YGRKKRRQRRRKLSSIESDV [Tat-NR2B9c, reference compound] , tested on N-type calcium channels (Mus musculus, UniProt O55017), showed Ca2+ current shown as a percentage (normalized to current before peptide) of 68+/−1.7%
